Test: chemical genetic growth profiling, strain panel (AID 1159580);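 note: tested at 20 µM; growth read once vehicle control cultures reached saturation at 30 °C; 1 = growth at the plate median or of vehicle wells; lower values mean less growth of the strain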
Conditions: S. cerevisiae deletion strains, growth OD, locus YDR334W, strain swr1
The campaign covered roughly 5,500 compounds. About 2,000 (36%) were called active. About 18% were inconclusive and are not listed. Cut-off read from the data, not from the text of the source: active = normalized growth mostly below about 0.91 (no sharp cut-off); inconclusive = no clear call, values can overlap the other calls; inactive = mostly above about 0.92. The list shows a part of the results.
Please state which outcome applies, choosing from t (active), f (inactive)

Worked examples follow.
C[N+](C)(C)CCOP(=O)([O-])OP(=O)(O)OC[C@H]1OC(n2ccc(N)nc2=O)[C@H](O)[C@@H]1O (stereo partly specified) = f
CCc1nc(N)nc(N)c1-c1ccc(Cl)cc1 = f

Recorded test outcome, item CC1(C)C2CC[C@]3(C)C(C(=O)C=C4[C@H]5C[C@@](C)(C(=O)O)CC[C@]5(C)CC[C@]43C)[C@@]2(C)CC[C@@H]1O (stereo partly specified)
f

Recorded test outcome, item COc1c2c(c(CC=C(C)C)c3oc(=O)c(-c4ccc(O)cc4)c(O)c13)OC(C)(C)C=C2
f

Recorded test outcome, item COC(=O)C1=COC(OC2OC(CO)C(O)C(O)C2O)C2C(C)CC(=O)C12O (stereo unspecified)
f

Recorded test outcome, item COC(=O)[C@@H]1C(O)CC[C@H]2CN3CCc4c([nH]c5ccccc45)[C@@H]3C[C@@H]21 (stereo partly specified)
f

Recorded test outcome, item CC1(C)C2CC[C@]3(C)C(C(=O)C=C4[C@@H]5C[C@@](C)(C(=O)O)CC[C@]5(C)CC[C@]43C)[C@@]2(C)CC[C@@H]1OC(=O)CCC(=O)O (stereo partly specified)
f

Recorded test outcome, item CC1(C)C2CC[C@]3(C)C(C(=O)C=C4[C@@H]5C[C@@](C)(C(=O)O)CC[C@]5(C)CC[C@]43C)[C@@]2(C)CC[C@@H]1O (stereo partly specified)
f

Recorded test outcome, item CCCCCCCCCCCCCCCCOP(=O)([O-])OCC[N+](C)(C)C
t

Recorded test outcome, item COc1ccc(-c2coc3c(O)c(OC)ccc3c2=O)cc1
f

Recorded test outcome, item CCC1(C)CC(=O)NC1=O (stereo unspecified)
f

Recorded test outcome, item COc1ccc2c(c1)C1(C)CCC(=O)CC1CC2 (stereo unspecified)
f

Recorded test outcome, item C=C1CC[C@H](O)C/C1=C/C=C1\CCC[C@]2(C)C([C@H](C)/C=C/[C@H](C)C(C)C)CC[C@@H]12 (stereo partly specified)
f

Recorded test outcome, item CCC1(c2ccccc2)C(=O)NCNC1=O
f

Recorded test outcome, item CCC1(c2ccc(N)cc2)CCC(=O)NC1=O (stereo unspecified)
f

Recorded test outcome, item S=C=NCc1ccccc1
t

Recorded test outcome, item O=c1ccc2ccccc2o1
f

Recorded test outcome, item COC(=O)C1[C@H]2C[C@H]3c4[nH]c5ccccc5c4CCN3C[C@@H]2CC[C@@H]1O (stereo partly specified)
f

* * *

Assay: chemical genetic growth profiling, strain panel (AID 1159580)
Conditions: S. cerevisiae deletion strains, growth OD, locus YNL197C, strain WHI3
Screen size: about 5,500 compounds; about 2,000 (36%) were called active. About 18% were inconclusive and are not listed. Cut-off read from the data, not from the text of the source: active = normalized growth mostly below about 0.91 (no sharp cut-off); inconclusive = no clear call, values can overlap the other calls; inactive = mostly above about 0.92. The list shows a part of the results.
Please state which outcome applies, choosing from active, inactive

Worked examples follow.
N=c1nc(N2CCCCC2)cc(N)n1O = inactive
O=C(O)c1cc(=O)c2ccc(Cl)cc2[nH]1 = inactive

Recorded test outcome, item Oc1ccc(O)cc1
inactive

Recorded test outcome, item O=C(O)[C@H]1NCCC[C@H]1C(=O)O
inactive

Recorded test outcome, item CC(C)[N+](C)(CCOC(=O)C1c2ccccc2Oc2ccccc21)C(C)C
inactive

Recorded test outcome, item C[N+]1(C)C2CCC1CC(OC(=O)c1c[nH]c3ccccc13)C2 (stereo not given)
inactive

Recorded test outcome, item OC[C@H]1NC[C@@H](O)[C@@H]1O
inactive

Recorded test outcome, item Cc1nc(N=Nc2ccc(C(=O)O)cc2)c(COP(=O)(O)O)c(C=O)c1O
inactive

* * *

Below, each entry is listed with its recorded normalized growth.
Experiment: chemical genetic growth profiling, strain panel (AID 1159580);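 note: tested at 20 µM; growth read once vehicle control cultures reached saturation at 30 °C; 1 = growth at the plate median or of vehicle wells; lower values mean less growth of the strain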
Conditions: S. cerevisiae deletion strains, growth OD, locus YLL026W, hits give low values
About 2,000 (36%) of roughly 5,500 compounds were called active. Roughly 18% stayed inconclusive and do not appear here. The list shows a part of the results.
Response field accepts a number only; no unit should be typed.

Would you please look over these solved cases?
CCCCCCCCCCCCCCCCOP(=O)([O-])OCC[N+](C)(C)C = 0.0591
CCC(C(=O)O)c1ccccc1 (centres undefined) = 0.977
O=C(/C=C/c1ccccc1)O[C@H]1C[C@@H](O)[C@]2(O)C=CO[C@@H](O[C@@H]3O[C@H](CO)[C@@H](O)[C@H](O)[C@H]3O)[C@H]12 = 1.02

Quick one: normalized growth for CC(=O)[C@H]1CCC2C3C[C@H](C)C4=CC(=O)CC[C@]4(C)C3[C@@H](O)C[C@@]21C (some centres undefined) ?
0.99

Quick one: normalized growth for CCCCOc1ccc(C(=O)CCN2CCCCC2)cc1 ?
0.948

Quick one: normalized growth for CC(C)[C@H](N)C(=O)OCCOCn1cnc2c(=O)[nH]c(N)nc21 ?
1.01

Quick one: normalized growth for C/C=C(/C(=C/C)c1ccc(O)cc1)c1ccc(O)cc1 ?
0.969

Quick one: normalized growth for Cc1cc(C(C)(C)CC(C)(C)C)ccc1OCCOCC[N+](C)(C)Cc1ccccc1 ?
0.056

Quick one: normalized growth for NC(N)=NOCC[C@H](N)C(=O)O ?
1.01

Quick one: normalized growth for COc1ccc(C[C@H]2NC[C@H](O)[C@H]2OC(C)=O)cc1 ?
0.807

Quick one: normalized growth for COc1ccc(C(=O)c2ccccc2)c(O)c1 ?
0.841

Quick one: normalized growth for NC/C=C/C(=O)O ?
1

Quick one: normalized growth for COC(=O)C1[C@H]2C[C@H]3c4[nH]c5ccccc5c4CCN3C[C@@H]2CC[C@@H]1O (some centres undefined) ?
0.965

Quick one: normalized growth for Cc1cc(OC(=O)N2CCCCC2)c(C(C)C)cc1[N+](C)(C)C ?
1.03

Quick one: normalized growth for N=c1nc(N2CCCCC2)cc(N)n1O ?
0.985

Quick one: normalized growth for Cc1cc(=O)c2c(O)cc(O)c(C)c2o1 ?
0.962

Quick one: normalized growth for CCCCCC(C)N (centres undefined) ?
1.03

Quick one: normalized growth for CNc1ccccc1C(=O)N1CCc2c([nH]c3ccccc23)C1=O ?
1

Quick one: normalized growth for C[CH2][Hg][S]c1ccccc1C(=O)O ?
0.0549

Quick one: normalized growth for Cn1cc[nH]c1=S ?
1

Quick one: normalized growth for Cc1cccc(Nc2cc(Cl)nc(SCC(=O)O)n2)c1C ?
0.992

Quick one: normalized growth for CC(=O)OC1CC23CC24CCC(OC2OCC(O)C(O)C2O)C(C)(C)C4CCC3C2(C)CC3OC4(CC(C)C3C12C)OC(O)C1(C)OC41 (centres undefined) ?
1.02

Quick one: normalized growth for CC(C)(C)CC(C)(C)c1ccc(OCCOCC[N+](C)(C)Cc2ccccc2)cc1 ?
0.059

Quick one: normalized growth for OCCN(CCO)c1nc(N2CCCCC2)c2nc(N(CCO)CCO)nc(N3CCCCC3)c2n1 ?
0.99

Quick one: normalized growth for COc1cc(O)c2c(=O)cc(C)oc2c1CC=C(C)C ?
0.974

* * *

Assay: chemical genetic growth profiling, strain panel (AID 1159580);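 note: tested at 20 µM; growth read once vehicle control cultures reached saturation at 30 °C; 1 = growth at the plate median or of vehicle wells; lower values mean less growth of the strain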
Settings: S. cerevisiae deletion strains, growth OD, locus YBR009C, strain hhf1
The whole screen tested about 5,500 compounds, of which about 2,000 (36%) were called active. About 18% were inconclusive and are not listed. Cut-off read from the data, not from the text of the source: active = normalized growth mostly below about 0.91 (no sharp cut-off); inconclusive = no clear call, values can overlap the other calls; inactive = mostly above about 0.92. This is one part of the list.
Please state which outcome applies, choosing from active, inactive

Worked examples follow.
O=C(/C=C/c1ccccc1)O[C@H]1C[C@@H](O)[C@]2(O)C=CO[C@@H](O[C@@H]3O[C@H](CO)[C@@H](O)[C@H](O)[C@H]3O)[C@H]12 = inactive
COc1ccc([C@@H]2CC(=O)c3c(O)cc(O)cc3O2)cc1O = inactive
COc1ccc(C2CC(=O)c3ccc(OC)cc3O2)cc1 (stereo not given) = active
C[C@@H]1O[C@@H](O[C@H]2[C@@H](Oc3cc(O)c4c(c3)O[C@H](c3ccc(O)cc3)CC4=O)O[C@H](CO)[C@@H](O)[C@@H]2O)[C@H](O)[C@H](O)[C@H]1O = inactive

Now consider the entry below.
Recorded test outcome, item CN=C(NC#N)NCCSCc1nc[nH]c1C
inactive

* * *

Assay: chemical genetic growth profiling, strain panel (AID 1159580);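 note: tested at 20 µM; growth read once vehicle control cultures reached saturation at 30 °C; 1 = growth at the plate median or of vehicle wells; lower values mean less growth of the strain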
Conditions: S. cerevisiae deletion strains, growth OD, locus YIL147C, strain SLN1, hits give low values
About 2,000 (36%) of roughly 5,500 compounds were called active. About 18% were inconclusive and are not listed. The list shows a part of the results.
Below, each entry is listed with its recorded normalized growth.
Response field accepts a number only; no unit should be typed.

Would you please look over these solved cases?
CC1=CC(=O)C(CCOCCC2=CC(=O)C(C)=CC2=O)=CC1=O = 0.984
O=C(CCN1CCCCC1)c1ccc(-c2ccccc2)cc1 = 0.977
O=C(Nc1cc(Cl)cc(Cl)c1)Nc1cc(-c2ccco2)[nH]n1 = 0.934

Quick one: normalized growth for O=C(Nc1cc(Cl)cc(Cl)c1)Nc1cc(-c2cccs2)[nH]n1 ?
0.967

Quick one: normalized growth for NC(N)=Nc1nc(-c2cc(Cl)sc2Cl)cs1 ?
0.987
